I'd be grateful if you could share measured HI activity for these entries.
target: Influenza virus A/Brisbane/59/2007 (H1N1) (Influenza A virus A/Brisbane/59/2007 (H1N1)); assay: cell-based or functional assay

* Group 42 representative clone F083-249, Fab-PP-type antibody (Fab, V domains shown) VH: QVQLVQSGSEVKKPGSSVKVSCKASGVTFSSYAISWVRQAPGQGLEWMGGISPMFGTTRYAQKFQGRVTITADESTRTGFMELSSLRSGDTAVYYCARSPTYYPGALDMWGQGTTVTVSS VL: DVVMTQSPSLLSASVGDRVTITCRASQAIANFVSWFQQKPGEAPKSLIHAASTLQGGVPPRFSGSGYGAVFTLTITNLQPEDFATYFCQQYNSLPFTFGPGTDVEVR | > 160 µg/mL
* Group 3 representative clone F081-281, Fab-PP-type antibody (Fab, V domains shown) VH: QVQLVQSGSEVKKPGSSVKVSCSFKASGGIISKYAITWVRQAPGQGLEWMGGIIAIFGSTNYAQKFQGRLTITSDESTSTAYMELSSLTSEDTAVYYCGRGPHYYESHLDYWGQGTLVTVSS VL: EIVLTQSPGTLSLSPGERATLSCRASQGMSSSFLAWYQQKPGQPPRLLISGASTRATGIPDRFSGSGSGTDFTLTINRLEPEDFAVYYCQQYGSSPRTFGQGTKVEIK | > 160 µg/mL

Switching to the query record.
Dear colleague, I am looking for the recorded HI activity of the following binder: Group 64 representative clone F083-301, Fab-PP-type antibody (Fab, V domains shown) VH: QVQLVQSGAEVKKPGSSVKVSCKASGGIFNSNAISWVRQAPGQGLEWMGGIIGIFGTANYAQKFQGRVTIAADQSTNTVFMELSSLTSEDTAVYFCARSRGYSFGYGTDYFDYWGQGTLVTVSS VL: DIVMTQSPSTLSASVGDRVTITCRASQSISSWLAWYQQAPGKAPKLLIYEASKLQSGVPSRFSATGSGTEFTLTIASLQPEDFAIYYCQHYEAYPFSFGPGTKLDVK > 160 µg/mL

Reference source: patent US20160200799A1
